Cited source for all entries: patent US5061794A

system: Ps. cepacia 23; experiment: in vitro antibacterial activity, agar plate dilution method (MIC); type: cell-based, Pseudomonas cepacia; conditions: Burkholderia cepacia, 16 h; Ps. cepacia 23; 10^6 CFU/ml; read-out: Minimum Inhibitory Concentration (MIC)
The threshold is 0.05 µg/mL. Values of MIC beneath it are tagged criterion met; values meeting or exceeding it are tagged criterion not met.

CO/N=C(\C(=O)N[C@@H]1C(=O)N2C(C(=O)O)=C(COC(C)=O)CS[C@H]12)c1csc(N)n1 [cefotaxime, reference compound] :: criterion not met
Nc1nc(C(=NOC2CCCC2)C(=O)NC2C(=O)N3C(C(=O)O)=C(CSc4nc(C(=O)O)c(-c5ccc(O)c(O)c5)s4)CSC23)cs1 (stereo not drawn) :: criterion met
CC(C)(O/N=C(\C(=O)N[C@@H]1C(=O)N2C(C(=O)O)=C(CSc3nc(-c4ccc(O)cc4)c(CC(=O)O)s3)CS[C@H]12)c1csc(N)n1)C(=O)O [compound 19, reference compound] :: criterion not met
Nc1nc(/C(=N/OC2(C(=O)O)CC2)C(=O)N[C@@H]2C(=O)N3C(C(=O)O)=C(CSc4ncc(-c5ccc(O)c(O)c5)o4)CS[C@H]23)cs1 :: criterion met
CCON=C(C(=O)NC1C(=O)N2C(C(=O)O)=C(CSc3nc(C(=O)O)c(-c4ccc(O)c(O)c4)s3)CSC12)c1csc(N)n1 (stereo not drawn) :: criterion met
Nc1nc(/C(=N/OCc2ccccc2)C(=O)N[C@@H]2C(=O)N3C(C(=O)O)=C(CSc4nnc(-c5ccc(O)c(O)c5)s4)CS[C@H]23)cs1 :: criterion met
Nc1nc(C(=NOC(C(=O)O)c2ccc(O)c(O)c2)C(=O)NC2C(=O)N3C(C(=O)O)=C(CSc4nnc(-c5ccc(O)c(O)c5)s4)CSC23)cs1 (single isomer, unassigned) :: criterion met
CO/N=C(\C(=O)N[C@@H]1C(=O)N2C(C(=O)O)=C(CSc3nnc(-c4ccc(O)c(O)c4)o3)CS[C@H]12)c1csc(N)n1 :: criterion not met
CO/N=C(\C(=O)N[C@@H]1C(=O)N2C(C(=O)O)=C(CSc3nnc(-c4ccc(O)cc4)s3)CS[C@H]12)c1csc(N)n1 [compound 7, reference compound] :: criterion not met

For the next question, use this compound.
Identify whether the compound CON=C(C(=O)NC1C(=O)N2C(C(=O)O)=C(CSc3nc(-c4ccc(O)c(O)c4)c(CC(=O)O)s3)CSC12)c1csc(N)n1 (stereo not drawn) records MIC below 0.05 µg/mL. criterion met
